System: K. pneumoniae FADDI-KP032
Format: cell-based, Klebsiella pneumoniae
Experimental Context: FADDI-KP032
Residues, ends and D or L forms follow the SMILES beside them.

{"columns": ["Compound", "MIC K. pneumoniae FADDI-KP032"],
 "data": [
  ["CCCCCCCC(=O)N[C@@H](CCN)C(=O)N[C@H](C(=O)N[C@H](CO)C(=O)N[C@H]1CCNC(=O)[C@H]([C@@H](C)O)NC(=O)[C@H](CCN)NC(=O)[C@H](CCN)NC(=O)[C@H]([C@@H](C)O)NC(=O)[C@@H](CC(C)C)NC(=O)[C@H](CCN)NC1=O)[C@@H](C)O [Lipopeptide F183] (HELM PEPTIDE1{[CCCCCCCC(=O)[*:2]].[Dab].T.[dS].[Dab].[Dab].[dL].T.[Dab].[Dab].T}$PEPTIDE1,PEPTIDE1,5:R3-11:R2$$$V2.0)", "<0.125 µg/mL"],
  ["CCCCCCCC(=O)N[C@@H](CCN)C(=O)N[C@H](C(=O)N[C@@H](CCN)C(=O)N[C@H]1CCNC(=O)[C@H]([C@@H](C)O)NC(=O)[C@H](CCN)NC(=O)[C@H](CCN)NC(=O)[C@H]([C@@H](C)O)NC(=O)[C@@H](CCCC)NC(=O)[C@H](CCN)NC1=O)[C@@H](C)O [Lipopeptide F226] (HELM PEPTIDE1{[CCCCCCCC(=O)[*:2]].[Dab].T.[Dab].[Dab].[Dab].[CCCC[C@@H](N[*:1])C(=O)[*:2]].T.[Dab].[Dab].T}$PEPTIDE1,PEPTIDE1,5:R3-11:R2$$$V2.0)", "<0.125 µg/mL"]
]}
